Target: huPD-L1 (Homo sapiens, UniProt Q9NZQ7)
Sequence (Q9NZQ7 19-290): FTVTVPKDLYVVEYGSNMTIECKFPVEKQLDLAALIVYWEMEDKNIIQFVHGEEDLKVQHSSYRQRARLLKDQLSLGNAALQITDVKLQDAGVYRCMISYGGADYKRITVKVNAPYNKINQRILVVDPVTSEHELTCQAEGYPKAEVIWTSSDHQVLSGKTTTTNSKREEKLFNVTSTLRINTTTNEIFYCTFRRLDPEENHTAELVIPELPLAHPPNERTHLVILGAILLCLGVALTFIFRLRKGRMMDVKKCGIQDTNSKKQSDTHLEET
Experiment: Flow binding to CHO cells stably expressing PD-L1
Set-up: huCTLA4 and huPD-L1, full-length mammalian surface expression constructs were generated; expressed in transfected cells; host or cells: CHO cells, lentiviral transduction, sorted to >98% purity
Details: Table E23; CD80 IgV-Fc (inert) at 33.3 nM; CHO cells stably expressing PD-L1
Binarize PD-L1 MFI at 33.3 nM at 50000; below is rule met, at or above is rule not met.

>  <molecule>
H18V/A26D/E35D/M47V/V68M/A71G/D90G (protein, UniProt P33681 35-288, looked up, variant H18V A26D E35D M47V V68M A71G D90G, Fc fusion) T-lymphocyte activation …: VIHVTKEVKEVATLSCGVNVSVEELDQTRIYWQKDKKMVLTMMSGDVNIWPEYKNRTIFDITNNLSIMILGLRPSDEGTYECVVLKYEKGAFKREHLAEVTLSVKADFPTPSISDFEIPTSNIRRIICSTSGGFPEPHLSWLENGEELNAINTTVSQDPETELYAVSSKLDFNMTTNHSFMCLIKYGHLRVNQTFNWNTTKQEHFPDNLLPSWAITLISVNGIFVICCLTYCFAPRCRERRRNERLRRESVRPV

>  <class>
rule not met

$$$$
>  <molecule>
H18T/A26N/E35D/M47L/V68M/A71G (protein, UniProt P33681 35-288, looked up, variant H18T A26N E35D M47L V68M A71G, Fc fusion) T-lymphocyte activation …: VIHVTKEVKEVATLSCGTNVSVEELNQTRIYWQKDKKMVLTMMSGDLNIWPEYKNRTIFDITNNLSIMILGLRPSDEGTYECVVLKYEKDAFKREHLAEVTLSVKADFPTPSISDFEIPTSNIRRIICSTSGGFPEPHLSWLENGEELNAINTTVSQDPETELYAVSSKLDFNMTTNHSFMCLIKYGHLRVNQTFNWNTTKQEHFPDNLLPSWAITLISVNGIFVICCLTYCFAPRCRERRRNERLRRESVRPV

>  <class>
rule not met

$$$$
>  <molecule>
H18V/E35D/M47V/V68M/A71G/D90G (protein, UniProt P33681 35-288, looked up, variant H18V E35D M47V V68M A71G D90G) T-lymphocyte activation …: VIHVTKEVKEVATLSCGVNVSVEELAQTRIYWQKDKKMVLTMMSGDVNIWPEYKNRTIFDITNNLSIMILGLRPSDEGTYECVVLKYEKGAFKREHLAEVTLSVKADFPTPSISDFEIPTSNIRRIICSTSGGFPEPHLSWLENGEELNAINTTVSQDPETELYAVSSKLDFNMTTNHSFMCLIKYGHLRVNQTFNWNTTKQEHFPDNLLPSWAITLISVNGIFVICCLTYCFAPRCRERRRNERLRRESVRPV

>  <class>
rule met

$$$$
>  <molecule>
H18L/A26N/D46E/V68M/A71G/D90G (protein, UniProt P33681 35-288, looked up, variant H18L A26N D46E V68M A71G D90G) T-lymphocyte activation …: VIHVTKEVKEVATLSCGLNVSVEELNQTRIYWQKEKKMVLTMMSGEMNIWPEYKNRTIFDITNNLSIMILGLRPSDEGTYECVVLKYEKGAFKREHLAEVTLSVKADFPTPSISDFEIPTSNIRRIICSTSGGFPEPHLSWLENGEELNAINTTVSQDPETELYAVSSKLDFNMTTNHSFMCLIKYGHLRVNQTFNWNTTKQEHFPDNLLPSWAITLISVNGIFVICCLTYCFAPRCRERRRNERLRRESVRPV

>  <class>
rule not met

$$$$
>  <molecule>
H18Y/A26P/E35D/M47V/V68M/A71G (protein, UniProt P33681 35-288, looked up, variant H18Y A26P E35D M47V V68M A71G) T-lymphocyte activation …: VIHVTKEVKEVATLSCGYNVSVEELPQTRIYWQKDKKMVLTMMSGDVNIWPEYKNRTIFDITNNLSIMILGLRPSDEGTYECVVLKYEKDAFKREHLAEVTLSVKADFPTPSISDFEIPTSNIRRIICSTSGGFPEPHLSWLENGEELNAINTTVSQDPETELYAVSSKLDFNMTTNHSFMCLIKYGHLRVNQTFNWNTTKQEHFPDNLLPSWAITLISVNGIFVICCLTYCFAPRCRERRRNERLRRESVRPV

>  <class>
rule not met

$$$$

The reported measurements were obtained from patent US20220177587A1.
